- targetDesc: human orexin-1 receptor (Homo sapiens (Human))
- procedureText: In vitro assay: intracellular calcium measurements (FLIPR), antagonistic activity
- conditionSummary: CHO cells expressing human orexin-1 receptor, orexin-A agonist, geometric mean, read-out: IC50 Ox1
pIC50: −log10 of the molar value.
measureName: pIC50

The following compounds have reported results that may help.
In [3]: df
Out[3]:
                                   compound  reading
0  Cc1nc(C(=O)N2CCCC2c2nc3cc(Br)ccc3[nH]2)c(-c2cccc(Cl)c2)s1 (stereo not drawn)     6.99
1  COc1ccc(-n2nccn2)c(C(=O)N2C[C@H](OC)C[C@H]2c2nc3ccc(OC)cc3[nH]2)c1     5.73

a: C=C1C[C@@H](c2nc3cc(Cl)c(C(F)(F)F)cc3[nH]2)N(C(=O)c2ccc(C)cc2-n2nccn2)C1
b: C=C1CC(c2nc3c(Br)cccc3[nH]2)N(C(=O)c2nc(C3CC3)sc2-c2cccc(C)c2)C1 (stereo not drawn)
c: Cc1ccc(-n2nccn2)c(C(=O)N2CCC[C@H]2c2nc3cccc(Cl)c3[nH]2)c1
In: # ascending order, key=pIC50 Provide the labels, sequenced as the question asks.
Out: c, a, b
(c: 6.69, a: 7.92, b: 9.05)

a: COc1cccc(-c2nc(C(=O)N3CCC[C@@]3(C)c3nc4ccc(Cl)c(C)c4[nH]3)c(-c3ccc(F)cc3)s2)c1
b: CCn1c([C@]2(C)CCCN2C(=O)c2cc(C)ccc2-c2ccc(F)cc2)nc2cc(C)c(C)cc21
c: C=C1C[C@@H](c2nc3cc(C(C)(C)C)ccc3[nH]2)N(C(=O)c2ccccc2-n2nccn2)C1
d: Cc1ccc(-c2ccccc2)c(C(=O)N2CC[C@H](C)[C@H]2c2nc3c(C)c(Cl)ccc3[nH]2)c1F
e: COc1cc2nc([C@@H]3[C@@H](C)CCN3C(=O)c3cc(C)ccc3-c3ncccn3)[nH]c2cc1OC
In: Sort by pIC50, descending. Provide the labels, sequenced as the question asks.
Out: d, b, a, e, c
(d: 8.82, b: 8.10, a: 7.82, e: 7.57, c: 6.48)

I: COc1cccc(-c2ccc(C)cc2C(=O)N2CCC[C@@]2(C)c2nc3c(C)c(C)ccc3[nH]2)c1
II: CO[C@@H]1C[C@@H](c2nc3ccc(Cl)c(C)c3[nH]2)N(C(=O)c2ccccc2-c2ccc(C)c(C)c2)C1
In: Please indicate which item has the smaller measured pIC50: I versus II Respond with the label that goes with your answer.
Out: I

###

- targetDesc: human orexin-2 receptor (Homo sapiens (Human), UniProt O43614)
- Sequence (O43614 whole entry): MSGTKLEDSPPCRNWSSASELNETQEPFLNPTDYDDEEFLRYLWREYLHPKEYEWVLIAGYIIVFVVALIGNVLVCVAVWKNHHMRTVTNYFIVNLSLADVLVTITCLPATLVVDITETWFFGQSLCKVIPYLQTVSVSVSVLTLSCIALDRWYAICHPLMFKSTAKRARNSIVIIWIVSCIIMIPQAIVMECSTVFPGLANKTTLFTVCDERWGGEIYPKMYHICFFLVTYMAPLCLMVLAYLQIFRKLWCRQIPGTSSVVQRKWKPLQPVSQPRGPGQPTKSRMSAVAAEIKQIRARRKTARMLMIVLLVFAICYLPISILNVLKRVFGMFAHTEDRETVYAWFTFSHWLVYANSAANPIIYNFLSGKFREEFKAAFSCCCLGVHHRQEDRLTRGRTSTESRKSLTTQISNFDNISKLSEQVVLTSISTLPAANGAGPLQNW
- procedureText: In vitro assay: intracellular calcium measurements (FLIPR), antagonistic activity
- conditionSummary: CHO cells expressing human orexin-2 receptor, orexin-A agonist, geometric mean, read-out: IC50 Ox2
measureName: IC50 (nM)

The following molecules have reported results that may help.
In [3]: df
Out[3]:
                                   molecule  measurename  unitstext  reading
0  Cc1ccc(-c2ccccc2)c(C(=O)N2CC[C@H](C)[C@H]2c2nc3c(C)c(Cl)ccc3[nH]2)c1F [Ex. 4.171]         IC50         nM      571
1  Cc1ccc(-n2nccn2)c(C(=O)N2CCC[C@@]2(C)c2nc3cc(C(F)(F)F)ccc3[nH]2)c1F [Ex. 5.169]         IC50         nM      197
2  C=C1C[C@@H](c2nc3cc(Cl)c(C(F)(F)F)cc3[nH]2)N(C(=O)c2cc(F)ccc2-n2nccn2)C1 [Ex. 6.176]         IC50         nM       18

I: CO[C@H]1C[C@@H](c2nc3c(C)cccc3[nH]2)N(C(=O)c2nc(C)sc2-c2ccccc2)C1 [Ex. 3.3]
II: Cc1nc(C(=O)N2CCCC2c2nc3cc(Br)cc(C)c3[nH]2)c(-c2cccc(Cl)c2)s1 (stereo not drawn) [Ex. 1.107]
In: I need your help: which of the pair I , II has higher IC50? Respond with the label that goes with your answer.
Out: I
(I: 255 nM, II: 58 nM)

1: CCn1c([C@]2(C)CCCN2C(=O)c2cc(C)ccc2-c2ccc(C)cc2)nc2cc(C)c(C)cc21 [Ex. 7.38]
2: C=C1C[C@@H](c2nc3cccc(C)c3[nH]2)N(C(=O)c2nc(C)sc2-c2ccc(Br)cc2)C1 [Ex. 6.100]
In: I need your help: which of the pair 1 , 2 has higher IC50? Respond with the label that goes with your answer.
Out: 1

a: Cc1ccc(-c2ccc(C)cc2C(=O)N2CCC[C@@]2(C)c2nc3cc(C)c(C)cc3n2CC2CC2)cc1 [Ex. 7.39]
b: Cc1ccc(-c2ccc(C#N)cc2)c(C(=O)N2CCC[C@@]2(C)c2nc3cc(C(F)(F)F)ccc3[nH]2)c1 [Ex. 5.193]
c: Cc1nc(C(=O)N2CC[C@H](C)[C@H]2c2nc3c(C)c(Cl)ccc3[nH]2)c(-c2cccc(Cl)c2)s1 [Ex. 4.21]
d: COc1cc2nc([C@]3(C)CCCN3C(=O)c3c(-n4nccn4)ccc(OC)c3F)[nH]c2cc1OC [Ex. 5.69]
e: COc1ccc(-n2nccn2)c(C(=O)N2CCC[C@@]2(C)c2nc3c(C)c(Cl)ccc3n2C)c1 [Ex. 7.23]
In: # ascending order, key=IC50 Provide the labels, sequenced as the question asks.
Out: e, a, c, b, d

A: COc1ccc(-n2nccn2)c(C(=O)N2CCC[C@@]2(C)c2nc3cc(C)c(C)cc3[nH]2)c1F [Ex. 5.55]
B: Cc1nc(C(=O)N2CC[C@H](C)[C@H]2c2nc3c(CO)cccc3[nH]2)c(-c2cccc(Cl)c2)s1 [Ex. 4.17]
In: I need your help: which of the pair A , B has higher IC50? Respond with the label that goes with your answer.
Out: B
(B: 1670 nM, A: 202 nM)

a: Cc1c(Cl)ccc2[nH]c([C@@H]3[C@@H](C)CCN3C(=O)c3cc(Cl)ccc3-n3nccn3)nc12 [Ex. 4.60]
b: Cc1ccccc1-c1nc(C(=O)N2CCC[C@@]2(C)c2nc3c(C)c(Cl)ccc3[nH]2)c(-c2ccc(F)cc2)s1 [Ex. 5.228]
c: COc1cc2nc([C@]3(C)CCCN3C(=O)c3c(-n4nccn4)ccc(C)c3F)[nH]c2cc1OC [Ex. 5.68]
In: Sort by IC50, descending. Provide the labels, sequenced as the question asks.
Out: b, c, a

a: C=C1C[C@@H](c2nc3cc(OC)ccc3[nH]2)N(C(=O)c2cncnc2-c2cccc(C)c2)C1 [Ex. 6.17]
b: COc1ccc(-n2nccn2)c(C(=O)N2CC[C@H](C)[C@H]2c2nc3cc(OC)c(OC)cc3[nH]2)c1 [Ex. 4.43]
In: I need your help: which of the pair a , b has higher IC50? Respond with the label that goes with your answer.
Out: b

A: Cc1ccc(-c2nc(C(=O)N3CCC[C@@]3(C)c3nc4c(C)c(Cl)ccc4[nH]3)c(-c3ccc(F)cc3)s2)cc1C [Ex. 5.254]
B: Cc1nc(C(=O)N2C[C@H](F)C[C@H]2c2nc3c(C)cccc3[nH]2)c(-c2ccccc2)s1 [Ex. 2.3]
C: COc1ccc(-c2sc(C)nc2C(=O)N2CC[C@H](C)[C@H]2c2nc3c(C(F)(F)F)cccc3[nH]2)cc1 [Ex. 4.159]
D: Cc1ccc(-c2sc(C)nc2C(=O)N2CCC[C@@]2(C)c2nc3c(F)c(F)ccc3[nH]2)cc1 [Ex. 5.209]
E: COc1ccc(-c2cccc(F)c2)c(C(=O)N2CCC[C@@]2(C)c2nc3ccc(Cl)c(C)c3[nH]2)c1F [Ex. 5.300]
In: # ascending order, key=IC50 Provide the labels, sequenced as the question asks.
Out: E, B, D, C, A
(E: 18 nM, B: 61 nM, D: 101 nM, C: 215 nM, A: 9270 nM)

1: Cc1ccc(C(=O)N2CCC[C@@]2(C)c2nc3cc(F)c(Br)cc3[nH]2)c(-n2nccn2)c1 [Ex. 5.130]
2: COc1cccc(-c2ccc(OC)c(F)c2C(=O)N2CCC[C@@]2(C)c2nc3c(C)c(Cl)ccc3[nH]2)c1 [Ex. 5.296]
In: I need your help: which of the pair 1 , 2 has higher IC50? Respond with the label that goes with your answer.
Out: 1

###

- targetDesc: human orexin-1 receptor (Homo sapiens (Human), UniProt O43613)
- Sequence (O43613 whole entry): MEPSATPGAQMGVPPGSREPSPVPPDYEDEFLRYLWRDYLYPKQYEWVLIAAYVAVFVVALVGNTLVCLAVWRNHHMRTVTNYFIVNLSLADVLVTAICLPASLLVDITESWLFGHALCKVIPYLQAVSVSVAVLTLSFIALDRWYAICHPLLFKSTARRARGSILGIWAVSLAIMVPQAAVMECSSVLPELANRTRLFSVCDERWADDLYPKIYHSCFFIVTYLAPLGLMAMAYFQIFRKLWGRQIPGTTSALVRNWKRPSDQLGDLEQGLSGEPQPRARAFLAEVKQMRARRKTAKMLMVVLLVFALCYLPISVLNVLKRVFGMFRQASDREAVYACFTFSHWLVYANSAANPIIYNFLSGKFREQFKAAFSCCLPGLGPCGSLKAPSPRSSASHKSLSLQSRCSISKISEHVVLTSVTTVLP
- procedureText: In vitro assay: intracellular calcium measurements (FLIPR), antagonistic activity
- conditionSummary: CHO cells expressing human orexin-1 receptor, orexin-A agonist, geometric mean, read-out: IC50 Ox1
pIC50: −log10 of the molar value.
measureName: pIC50

The following compounds have reported results that may help.
                          chemicalstructure  measurename  reading
0  Cc1nc(C(=O)N2CCC[C@@]2(C)c2nc3cc(OC(F)(F)F)ccc3[nH]2)c(-c2ccc(F)cc2)s1        pIC50     7.66
1  Cc1ccc(-c2cccc(OC(F)(F)F)c2)c(C(=O)N2CCC[C@@]2(C)c2nc3cc(C(F)(F)F)c(Cl)cc3[nH]2)c1        pIC50     6.85
2  Cc1c(Cl)ccc2c1nc([C@]1(C)CCCN1C(=O)c1ccccc1-n1nccn1)n2C        pIC50     8.30
3  CCn1c([C@]2(C)CCCN2C(=O)c2cc(C)ccc2-c2ccccc2F)nc2cc(C)c(C)cc21        pIC50     7.51

A: C=C1C[C@@H](c2nc3cc(Cl)c(C(F)(F)F)cc3[nH]2)N(C(=O)c2ccccc2-n2nccn2)C1
B: Cc1ccc(-n2nccn2)c(C(=O)N2CCC[C@@]2(C)c2nc3cc(C(F)(F)F)ccc3[nH]2)n1
C: COc1ccc2nc([C@@H]3CCCN3C(=O)c3cnc(C)nc3-c3ccc(Cl)c(Cl)c3)[nH]c2c1
In: Sort by pIC50, descending. Provide the labels, sequenced as the question asks.
Out: B, A, C
